tested-on: T1, S100B (UniProt P04271 2-92)
T1 sequence: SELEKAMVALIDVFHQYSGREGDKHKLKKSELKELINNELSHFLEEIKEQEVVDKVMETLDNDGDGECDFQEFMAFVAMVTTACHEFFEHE
measurement-notes: NMR titration
experimental-readout: pKd
Would you please state pKd, meaning minus log10 of the concentration in mol/L, as a bare number?

Task: Endpoint output: pKd of IC3-C58 (domain or fragment, UniProt P61169-2 288-345, looked up) SNPDSPAKPEKNGHAKIVNPRIAKFFEIQTMPNGKTRTSLKTMSRRKLSQQKEKKATQ . Value?
Output: 6.00

The reported measurements were obtained from paper PMC3196243.
